The measured values listed here are drawn from patent US20200361871A1.

# Assay system: human TMEM16A (TMEM16Aabc variant) (Homo sapiens, UniProt Q5XXA6, DEL476-501, form not given)
# Sequence (Q5XXA6 with tags, fused parts or gaps DEL476-501): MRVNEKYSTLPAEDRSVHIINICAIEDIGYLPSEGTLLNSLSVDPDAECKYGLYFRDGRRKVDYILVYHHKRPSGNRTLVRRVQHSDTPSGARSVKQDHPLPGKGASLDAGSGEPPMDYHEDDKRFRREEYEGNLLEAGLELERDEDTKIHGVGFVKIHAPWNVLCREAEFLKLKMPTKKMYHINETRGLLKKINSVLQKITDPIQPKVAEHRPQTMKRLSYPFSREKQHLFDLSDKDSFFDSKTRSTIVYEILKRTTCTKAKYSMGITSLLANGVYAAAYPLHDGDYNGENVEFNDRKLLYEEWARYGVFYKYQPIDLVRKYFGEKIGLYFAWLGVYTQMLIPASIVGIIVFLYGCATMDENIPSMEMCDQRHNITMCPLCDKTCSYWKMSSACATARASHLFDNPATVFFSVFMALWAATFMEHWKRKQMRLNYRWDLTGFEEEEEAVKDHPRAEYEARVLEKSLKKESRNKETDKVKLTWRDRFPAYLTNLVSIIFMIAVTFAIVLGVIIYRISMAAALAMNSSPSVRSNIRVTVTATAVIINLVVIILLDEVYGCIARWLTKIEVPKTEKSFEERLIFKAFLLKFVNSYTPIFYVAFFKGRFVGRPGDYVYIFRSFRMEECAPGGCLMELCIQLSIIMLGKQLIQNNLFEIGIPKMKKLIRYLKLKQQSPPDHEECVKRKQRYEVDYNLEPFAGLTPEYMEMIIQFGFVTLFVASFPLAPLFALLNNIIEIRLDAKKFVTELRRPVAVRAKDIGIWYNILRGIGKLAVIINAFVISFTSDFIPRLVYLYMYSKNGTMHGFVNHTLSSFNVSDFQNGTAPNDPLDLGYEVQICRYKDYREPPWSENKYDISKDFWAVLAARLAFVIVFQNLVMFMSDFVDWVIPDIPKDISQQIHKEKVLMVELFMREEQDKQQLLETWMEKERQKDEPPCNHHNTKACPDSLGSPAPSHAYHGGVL
# Protocol text: Automated whole-cell patch clamp (Qpatch) TMEM16A potentiator assay in FRT cells stably expressing human TMEM16A
# Condition: calculated EC50, Qpatch TMEM16A current at +70 mV
Value kind: pEC50
Recall that pEC50 is obtained by taking minus log10 of the concentration measured in molar.

pEC50 reported for this compound CCOC(=O)CC(C)(C)NC(=O)c1cc(NC(=O)Cc2cc(Cl)ccc2O)ccn1 [Example 35.13] : 6.46

pEC50 reported for this compound CC(C#N)(CO)NC(=O)c1cc(NC(=O)Cc2cc(Cl)ccc2O)ccn1 (racemic) [Example 46] : 6.60

pEC50 reported for this compound CC1(NC(=O)c2cc(NC(=O)Cc3cc(C(C)(C)C)ccc3O)ccn2)CCC1 [Example 3.6a] : 6.43

pEC50 reported for this compound CC(C)(C)NC(=O)c1cc(NC(=O)Cc2ccc(F)cc2O)ccn1 [Example 3.2a] : 6.80
